Numbers sourced from patent US20250304650A1.

We begin with a simple list: items and their reported koff.
- system.under.test: feline FcRn (FCN-F82W3, Acrobiosystems) (feline)
- experiment.notes: SPR Carterra, IgG coupled, pH 6.0
Record the value in s⁻¹, omitting the unit from your answer.

{"columns": ["binder", "assay.metric", "measured.value"],
 "data": [
  ["anti-NGF feline IgG1a, Fc variant S434Y, L309V (antibody, part only; not given: anti-NGF variable domains, light chain, not shown: another chain or arm of the molecule; small tags and cut ends) Fc: PPEMLGGPSIFIFPPKPKDTLSISRTPEVTCLVVDLGPDDSDVQITWFVDNTQVYTAKTSPREEQFNSTYRVVSVLPIVHQDWLKGKEFKCKVNSKSLPSPIERTISKAKGQPHEPQVYVLPPAQEELSRNKVSVTCLIKSFHPPDIAVEWEITGQPEPENNYRTTPPQLDSDGTYFVYSKLSVDRSHWQRGNTYTCSVSHEALHYHHTQKSLTQSPGK", "koff", 0.004]
]}

For this binder ( anti-NGF feline IgG1a, Fc variant T286D (antibody, part only; not given: anti-NGF variable domains, not shown: another chain or arm of the molecule; small tags and cut ends) Fc: PPEMLGGPSIFIFPPKPKDTLSISRTPEVTCLVVDLGPDDSDVQITWFVDNTQVYDAKTSPREEQFNSTYRVVSVLPILHQDWLKGKEFKCKVNSKSLPSPIERTISKAKGQPHEPQVYVLPPAQEELSRNKVSVTCLIKSFHPPDIAVEWEITGQPEPENNYRTTPPQLDSDGTYFVYSKLSVDRSHWQRGNTYTCSVSHEALHSHHTQKSLTQSPGK ), measured koff is 0.0389
